systemName: MMP13 (Homo sapiens, UniProt P45452)
assayExplanation: MMP13 inhibition (Table 1)
Type: biochemical
testConditions: @ 0.1 μM; read-out: percentage inhibition MMP13
Where a name gives a salt, the structure may show the parent alone.
propertyMeasured: inhibition at 0.1 µM (%)

Sample records with inhibition at 0.1 µM:
• CCCCCC(CS(=O)(=O)N1CCc2ccccc2C1)N(O)C=O (stereo not drawn) = 6
• O=CN(O)C(CS(=O)(=O)N1CCc2ccccc2C1)c1cccs1 (stereo not drawn) = 16
• COc1ccc(C(CS(=O)(=O)N2CCc3ccccc3C2)N(O)C=O)cn1 (stereo not drawn) = 28
• CC1(C)OC[C@H](C(CS(=O)(=O)N2CCc3ccccc3C2)N(O)C=O)O1 (stereo partly drawn) = 17
• O=CN(O)C(CCc1ccccc1)CS(=O)(=O)N1CCc2ccccc2C1 (stereo not drawn) = 15
• O=CN(O)C(CCc1ccccc1)CS(=O)(=O)N1Cc2ccccc2C1 (stereo not drawn) = 11

1 = O=CN(O)C(CS(=O)(=O)N1CCc2ccccc2C1)c1cccnc1 (stereo not drawn) [Example 11, hydrochloride salt]
2 = O=CN(O)C(CS(=O)(=O)N1CCc2ccccc2C1)C1CC1 (stereo not drawn)
3 = COc1cc2c(cc1OC)CN(S(=O)(=O)CC([C@H]1COC(C)(C)O1)N(O)C=O)CC2 (stereo partly drawn)
Would you mind ranking these compounds by ascending inhibition at 0.1 µM? State the ranking by listing the labels in the requested order.
2, 3, 1

* * *

systemName: collagenase (MMP-1) (Homo sapiens, UniProt P03956)
Sequence (P03956 100-469): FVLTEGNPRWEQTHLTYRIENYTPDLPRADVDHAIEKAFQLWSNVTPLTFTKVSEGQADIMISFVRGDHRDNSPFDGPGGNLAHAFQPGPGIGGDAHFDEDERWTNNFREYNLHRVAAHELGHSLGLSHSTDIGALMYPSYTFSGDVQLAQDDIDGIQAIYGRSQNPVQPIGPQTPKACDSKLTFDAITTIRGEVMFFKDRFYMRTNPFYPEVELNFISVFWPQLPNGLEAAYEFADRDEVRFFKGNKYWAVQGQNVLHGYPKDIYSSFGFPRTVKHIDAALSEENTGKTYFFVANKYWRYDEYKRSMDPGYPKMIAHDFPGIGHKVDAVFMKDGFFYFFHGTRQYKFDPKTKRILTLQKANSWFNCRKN
assayExplanation: MMP-1 enzyme inhibition assay (coumarin-labelled peptide substrate)
Type: biochemical
testConditions: @ 5 μM; read-out: percentage inhibition MMP1
propertyMeasured: inhibition at 5 µM (%)

- O=CN(O)C(CS(=O)(=O)N1CCc2ccccc2C1)C1CC1 (stereo not shown): 19
- O=CN(O)C(CS(=O)(=O)N1CCc2ccccc2C1)c1cncnc1 (stereo not shown): 29

a = CC(C)(Cc1ccccc1)C(CS(=O)(=O)N1CCc2cc(C(F)(F)F)ccc2C1)N(O)C=O (stereo not shown)
b = O=CN(O)C(CS(=O)(=O)N1CCc2ccc(-c3ccccc3)cc2C1)C1CCCC1 (stereo not shown)
Please let me know which one, a or b , has a lower measured inhibition at 5 µM value. Indicate your choice by writing its label.
b

* * *

Hi! I'm sharing some pIC50 results obtained with metalloelastase (MMP-12) (Homo sapiens, UniProt P39900).
Sequence (P39900 106-470): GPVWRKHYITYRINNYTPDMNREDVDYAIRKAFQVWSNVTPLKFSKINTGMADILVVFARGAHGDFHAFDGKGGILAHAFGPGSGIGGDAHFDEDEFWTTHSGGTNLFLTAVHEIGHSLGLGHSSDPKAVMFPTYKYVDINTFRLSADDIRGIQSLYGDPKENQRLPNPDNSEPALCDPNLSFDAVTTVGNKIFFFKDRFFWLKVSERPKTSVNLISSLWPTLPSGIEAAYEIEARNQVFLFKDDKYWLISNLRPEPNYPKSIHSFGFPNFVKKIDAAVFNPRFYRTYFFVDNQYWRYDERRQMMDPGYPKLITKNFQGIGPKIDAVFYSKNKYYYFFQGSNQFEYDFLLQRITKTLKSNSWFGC
pIC50: −log10 of the molar value.
propertyMeasured: pIC50

• COc1cc2c(cc1OC)CN(S(=O)(=O)CC(N(O)C=O)C(C)(C)C)CC2 (stereo not shown) = 6.55
• CC(C)c1ccc2c(c1)CCN(S(=O)(=O)C[C@H]([C@H]1CCCO1)N(O)C=O)C2 = 8.82

a = O=CN(O)C(CS(=O)(=O)N1CCc2ccc(Br)cc2C1)C1CCCC1 (stereo not shown)
b = CC(C)c1ccc2c(c1)CCN(S(=O)(=O)CC(C1CC1)N(O)C=O)C2 (stereo not shown)
I need your help: which of the pair a , b has higher pIC50? Answer by stating the label of the chosen item.
b
(b: 8.31, a: 8.10)

* * *

systemName: 92 kDa gelatinase (MMP-9) (Homo sapiens, UniProt P14780)
Sequence (P14780 107-707 limits assumed): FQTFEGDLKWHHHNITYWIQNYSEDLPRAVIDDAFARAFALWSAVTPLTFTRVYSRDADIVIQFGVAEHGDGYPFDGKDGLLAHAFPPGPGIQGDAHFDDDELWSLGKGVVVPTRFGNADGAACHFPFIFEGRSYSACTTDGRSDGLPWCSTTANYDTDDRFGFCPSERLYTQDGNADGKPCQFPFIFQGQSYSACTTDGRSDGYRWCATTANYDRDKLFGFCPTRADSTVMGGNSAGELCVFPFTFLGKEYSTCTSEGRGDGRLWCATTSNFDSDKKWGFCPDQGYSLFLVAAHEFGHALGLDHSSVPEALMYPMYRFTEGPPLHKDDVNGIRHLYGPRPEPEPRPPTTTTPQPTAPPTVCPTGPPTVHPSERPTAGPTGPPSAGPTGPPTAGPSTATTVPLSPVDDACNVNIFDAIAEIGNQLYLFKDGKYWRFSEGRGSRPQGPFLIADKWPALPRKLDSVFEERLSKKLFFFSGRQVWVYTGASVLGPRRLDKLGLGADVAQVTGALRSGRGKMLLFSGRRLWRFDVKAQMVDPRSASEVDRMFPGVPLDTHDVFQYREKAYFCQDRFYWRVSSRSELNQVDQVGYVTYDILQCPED
assayExplanation: MMP-9 enzyme inhibition assay (coumarin-labeled peptide substrate)
Type: biochemical
testConditions: @ 5 μM; read-out: percentage inhibition MMP9
propertyMeasured: inhibition at 5 µM (%)

• CCC(CC)C(CS(=O)(=O)N1CCc2cc(Cl)c(Cl)cc2C1)N(O)C=O (centres unmarked) = 42
• O=CN(O)C(CS(=O)(=O)N1CCc2ccc(-c3cccc(O)c3)cc2C1)C1CCCC1 (centres unmarked) = 3
• O=CN(O)C(CS(=O)(=O)N1CCc2cc(Cl)c(Cl)cc2C1)C1CCCC1 (centres unmarked) = 35

A = O=CN(O)[C@@H](CS(=O)(=O)N1CCc2ccc(C(F)(F)F)cc2C1)[C@H]1CCCO1
B = CCC(CC)C(CS(=O)(=O)N1CCc2ccc(Br)cc2C1)N(O)C=O (centres unmarked)
Which of these two has the smaller recorded inhibition at 5 µM: A or B ? Write the label of whichever entry you select.
A
(A: 4%, B: 37%)
